- System: HCT-116
- protocol.text: Induction of apoptosis in human HCT-116 cells assessed as late apoptotic cells at IC50 incubated for 72 hrs by Annexin V-FITC/PI staining based flow cytometric analysis (reference value: 1.6 %)
- Format: functional
Each entry below carries its reported Activity.
Report only the number, with the unit % understood.

Task item: Supply reported Activity belonging to this compound: CC12C(=O)C(C)(C(c3ccccc3)=C1c1ccccc1)C1C(=O)N(CCCCN3CCN(c4cccc(Cl)c4)CC3)C(=O)C12 (stereo unspecified)
Reply: 2.5

----------
- protocol.text: Selectivity index, ratio of IC50 for cytotoxicity against human HMEC-1 cells to IC50 for cytotoxicity against human HepG2 cells
- Assay type: toxicity, cell-based
- protocol.conditions: HMEC-1 cells and HepG2 cells, read-out: Ratio IC50
outcome.measure: selectivity ratio
Give a plain numeric answer without units written out.

Task item: Supply reported selectivity ratio belonging to this compound: COc1ccccc1N1CCN(CCCCN2C(=O)C3C(C2=O)C2(C)C(=O)C3(C)C(c3ccccc3)=C2c2ccccc2)CC1 (stereo unspecified)
Reply: 1.93
